Listed below: MBC values for each entry.
System: Staphylococcus aureus
Experiment: Bactericidal activity against methicillin-resistant Staphylococcus aureus NRS385 incubated for 20 hrs followed by re-plating on tryptic soy agar plates at 37 degC for 18 hrs by broth microdilution assay
Format: functional
// return numeric value only (unit: mg/L, not printed)

Examples with answers:
smiles-representation	system-name	quantity-name	unit-name	result
CCCCCCCCOc1ccc(-c2nc(C)c(-c3ccnc(NC(=N)N(C)C)n3)s2)cc1	Staphylococcus aureus	MBC	mg/L	16
CCCCCCCOc1ccc(-c2nc(C)c(-c3ccnc(NN)n3)s2)cc1	Staphylococcus aureus	MBC	mg/L	64
CN[C@H](CC(C)C)C(=O)N[C@H]1C(=O)N[C@@H](CC(N)=O)C(=O)N[C@H]2C(=O)N[C@H]3C(=O)N[C@H](C(=O)N[C@H](C(=O)O)c4cc(O)cc(O)c4-c4cc3ccc4O)[C@H](O)c3ccc(c(Cl)c3)Oc3cc2cc(c3O[C@@H]2O[C@H](CO)[C@@H](O)[C@H](O)[C@H]2O[C@H]2C[C@](C)(N)[C@H](O)[C@H](C)O2)Oc2ccc(cc2Cl)[C@H]1O	Staphylococcus aureus	MBC	mg/L	1
CCCCCCCOc1ccc(-c2nc(C)c(-c3ccnc(NC(=N)N(C)C)n3)s2)cc1	Staphylococcus aureus	MBC	mg/L	8
CCCCCCCCOc1ccc(-c2nc(C)c(-c3ccnc(NC(=N)N4CCN(C)CC4)n3)s2)cc1	Staphylococcus aureus	MBC	mg/L	16

Now look at this entry.
Which MBC is listed for `CCCCCCCOc1ccc(-c2nc(C)c(-c3ccnc(NC(=N)N4CCN(C)CC4)n3)s2)cc1` ?
8

====

Test system: Staphylococcus aureus
Experiment: Antibacterial activity against methicillin-resistant Staphylococcus aureus NRS386 after 20 hrs by broth microdilution assay
Format: functional
Settings: NRS386, 20 h
Listed below: MIC values for each entry.
// return numeric value only (unit: µg/mL, not printed)

smiles-representation	MIC / µg/mL
CCCCCCCOc1ccc(-c2nc(C)c(-c3ccnc(NC(=N)N(C)C)n3)s2)cc1	4
CCCCCCCOc1ccc(-c2nc(C)c(-c3ccnc(NN)n3)s2)cc1	32
CCCCCCCCOc1ccc(-c2nc(C)c(-c3ccnc(NC(=N)N4CCN(C)CC4)n3)s2)cc1	16
CCCCCCCCOc1ccc(-c2nc(C)c(-c3ccnc(NC(=N)N(C)C)n3)s2)cc1	16

Which MIC is listed for `CCCCCCCOc1ccc(-c2nc(C)c(-c3ccnc(NC(=N)N4CCN(C)CC4)n3)s2)cc1` ?
8

====

Listed below: MBC values for each entry.
Tested on: Listeria monocytogenes
Assay: Bactericidal activity against Listeria monocytogenes ATCC 19111 incubated for 20 hrs followed by re-plating on tryptic soy agar plates at 37 degC for 18 hrs by broth microdilution assay
Assay type: functional
// return numeric value only (unit: µg/mL, not printed)

Examples with answers:
smiles-representation	quantity-name	unit-name	result
CCCCCCCCOc1ccc(-c2nc(C)c(-c3ccnc(NC(=N)N4CCN(C)CC4)n3)s2)cc1	MBC	µg/mL	8
CCCCCCCOc1ccc(-c2nc(C)c(-c3ccnc(NC(=N)N4CCN(C)CC4)n3)s2)cc1	MBC	µg/mL	8
CCCCCCCOc1ccc(-c2nc(C)c(-c3ccnc(NC(=N)N(C)C)n3)s2)cc1	MBC	µg/mL	4

Now look at this entry.
Which MBC is listed for `CCCCCCCCOc1ccc(-c2nc(C)c(-c3ccnc(NC(=N)N(C)C)n3)s2)cc1` ?
8

====

Listed below: MBC values for each entry.
Test system: Staphylococcus aureus
Experiment: Bactericidal activity against vancomycin-resistant Staphylococcus aureus VRSA10 incubated for 20 hrs followed by re-plating on tryptic soy agar plates at 37 degC for 18 hrs by broth microdilution assay
Type: functional
// return numeric value only (unit: µg/mL, not printed)

Examples with answers:
smiles-representation	system-name	MBC (µg/mL)
CCCCCCCOc1ccc(-c2nc(C)c(-c3ccnc(NC(=N)N(C)C)n3)s2)cc1	Staphylococcus aureus	4
CCCCCCCOc1ccc(-c2nc(C)c(-c3ccnc(NC(=N)N4CCN(C)CC4)n3)s2)cc1	Staphylococcus aureus	8
CCCCCCCCOc1ccc(-c2nc(C)c(-c3ccnc(NC(=N)N(C)C)n3)s2)cc1	Staphylococcus aureus	16

Now look at this entry.
Which MBC is listed for `CCCCCCCCOc1ccc(-c2nc(C)c(-c3ccnc(NC(=N)N4CCN(C)CC4)n3)s2)cc1` ?
8

====

Tested on: Streptococcus pneumoniae
Assay: Antibacterial activity against methicillin-resistant Streptococcus pneumoniae ATCC 700677 after 20 hrs by broth microdilution assay
Assay type: functional
Settings: ATCC 700677, 20 h
Listed below: MIC values for each entry.
// return numeric value only (unit: mg/L, not printed)

Which MIC is listed for `CCCCCCCCOc1ccc(-c2nc(C)c(-c3ccnc(NC(=N)N(C)C)n3)s2)cc1` ?
16

====

Listed below: selectivity ratio values for each entry.
Test: Selectivity index, ratio of compound effect for human Caco2 cells at maximum non-toxic concentration concentration to MIC for vancomycin-resistant Enterococcus faecalis ATCC 51299
Assay type: toxicity
Conditions: Caco-2 cells, read-out: Selectivity Index

smiles-representation	selectivity ratio
CCCCCCCOc1ccc(-c2nc(C)c(-c3ccnc(NC(=N)N4CCN(C)CC4)n3)s2)cc1	7 to 82

Now look at this entry.
Which selectivity ratio is listed for `CCCCCCCOc1ccc(-c2nc(C)c(-c3ccnc(NC(=N)N(C)C)n3)s2)cc1` ?
7 to 82

====

Assay: AUC in Sprague-Dawley rat at 5 uM, iv administered as single bolus dose by LC-MS/MS analysis
Assay type: ADME, organism-based
Settings: in vivo
quantity-name: AUC at 5 µM (ng·h/mL)
// return numeric value only (unit: ng·h/mL, not printed)

Which AUC at 5 µM is listed for `CCCCCCCOc1ccc(-c2nc(C)c(-c3ccnc(NC(=N)N(C)C)n3)s2)cc1` ?
1140

====

Test system: Enterococcus faecalis
Test: Bactericidal activity against vancomycin-resistant Enterococcus faecalis ATCC 51299 incubated for 20 hrs followed by re-plating on tryptic soy agar plates at 37 degC for 18 hrs by broth microdilution assay
Type: functional
quantity-name: MBC

smiles-representation	MBC
CCCCCCCCOc1ccc(-c2nc(C)c(-c3ccnc(NC(=N)N(C)C)n3)s2)cc1	32 µg/mL
CCCCCCCOc1ccc(-c2nc(C)c(-c3ccnc(NC(=N)N(C)C)n3)s2)cc1	8 µg/mL
CCCCCCCOc1ccc(-c2nc(C)c(-c3ccnc(NC(=N)N4CCN(C)CC4)n3)s2)cc1	16 µg/mL

Quick check: MBC on Enterococcus faecalis, item `CCCCCCCCOc1ccc(-c2nc(C)c(-c3ccnc(NC(=N)N4CCN(C)CC4)n3)s2)cc1` ?
64 µg/mL

Quick check: MBC on Enterococcus faecalis, item `CN[C@H](CC(C)C)C(=O)N[C@H]1C(=O)N[C@@H](CC(N)=O)C(=O)N[C@H]2C(=O)N[C@H]3C(=O)N[C@H](C(=O)N[C@H](C(=O)O)c4cc(O)cc(O)c4-c4cc3ccc4O)[C@H](O)c3ccc(c(Cl)c3)Oc3cc2cc(c3O[C@@H]2O[C@H](CO)[C@@H](O)[C@H](O)[C@H]2O[C@H]2C[C@](C)(N)[C@H](O)[C@H](C)O2)Oc2ccc(cc2Cl)[C@H]1O` ?
64 µg/mL

Quick check: MBC on Enterococcus faecalis, item `CCCCCCCOc1ccc(-c2nc(C)c(-c3ccnc(NN)n3)s2)cc1` ?
> 64 µg/mL

====

Listed below: selectivity ratio values for each entry.
Experiment: Selectivity index, ratio of compound effect for human Caco2 cells at maximum non-toxic concentration concentration to MIC for vancomycin-resistant Enterococcus faecium ATCC 700221
Type: toxicity
Settings: Caco-2 cells, read-out: Selectivity Index

smiles-representation	quantity-name	result
CCCCCCCOc1ccc(-c2nc(C)c(-c3ccnc(NC(=N)N(C)C)n3)s2)cc1	selectivity ratio	7 to 82

Which selectivity ratio is listed for `CCCCCCCOc1ccc(-c2nc(C)c(-c3ccnc(NC(=N)N4CCN(C)CC4)n3)s2)cc1` ?
7 to 82

====

Assay: Clearance in Sprague-Dawley rat at 5 uM, iv administered as single bolus dose by LC-MS/MS analysis
Assay type: ADME, organism-based
Details: in vivo
quantity-name: clearance at 5 µM (mL/min)
// return numeric value only (unit: mL/min, not printed)

Which clearance at 5 µM is listed for `CCCCCCCOc1ccc(-c2nc(C)c(-c3ccnc(NC(=N)N(C)C)n3)s2)cc1` ?
29.2

====

Test system: Staphylococcus aureus
Test: Antibacterial activity against vancomycin-resistant Staphylococcus aureus VRSA12 after 20 hrs by broth microdilution assay
Assay type: functional
Conditions: VRSA12, 20 h
quantity-name: MIC (µg/mL)
// return numeric value only (unit: µg/mL, not printed)

Examples with answers:
smiles-representation	system-name	MIC, µg/mL
CCCCCCCOc1ccc(-c2nc(C)c(-c3ccnc(NC(=N)N4CCN(C)CC4)n3)s2)cc1	Staphylococcus aureus	8
CCCCCCCCOc1ccc(-c2nc(C)c(-c3ccnc(NC(=N)N4CCN(C)CC4)n3)s2)cc1	Staphylococcus aureus	16
CCCCCCCOc1ccc(-c2nc(C)c(-c3ccnc(NN)n3)s2)cc1	Staphylococcus aureus	64

Now look at this entry.
Which MIC is listed for `CCCCCCCOc1ccc(-c2nc(C)c(-c3ccnc(NC(=N)N(C)C)n3)s2)cc1` ?
4
